- Tested on: HepG2 cells
- assay overview: Cellular antioxidant activity (CAA) assay: inhibition of peroxyl radical-induced DCFH oxidation
- Assay type: cell-based, human
- setup conditions: no PBS wash protocol
measurement label: cellular antioxidant activity, result in words

1) O=C1C[C@@H](c2ccc(O)cc2)Oc2cc(O)cc(O)c21 : none

---

Overview of reported EC50 across a group of compounds:
- Tested on: HepG2 cells
- assay overview: Cellular antioxidant activity (CAA) assay: inhibition of peroxyl radical-induced DCFH oxidation
- Format: cell-based, human
- setup conditions: Homo sapiens, HepG2, Example 3, Table 7; no PBS wash; flavonoids; mean ± SD, n=3; read-out: EC50
- Method: Cells (e.g., human hepatocellular carcinoma cells; HepG2) are seeded at a density of e.g., 6×10^4/well on a 96-well microplate in 100 μL growth medium/well. […] 600 μM ABAP is then applied to the cells in 100 μL HBSS and the 96-well microplate is placed into a plate reader e.g., Fluoroskan Ascent FL plate-reader (ThermoLabsystems, Franklin, Mass.) at 37° C. Emission at 538 nm is measured with excitation at 485 nm, for example every 5 min for 1 h. […]
measurement label: EC50

1) O=C1c2c(O)cc(O)cc2O[C@H](c2ccc(O)c(O)c2)[C@H]1O [Taxifolin, taxifolin] : > 200 µM
2) O=c1c(O)c(-c2ccc(O)cc2O)oc2cc(O)cc(O)c12 [morin] : 27.6 µM
3) O=c1cc(-c2ccc(O)c(O)c2)oc2cc(O)cc(O)c12 [Luteolin, luteolin] : 23.8 µM
4) O=c1c(O)c(-c2cc(O)c(O)c(O)c2)oc2cc(O)cc(O)c12 [Myricetin, myricetin] : 31.1 µM
5) O=C(O[C@@H]1Cc2c(O)cc(O)cc2O[C@@H]1c1ccc(O)c(O)c1)c1cc(O)c(O)c(O)c1 [ECG, (−)-epicatechin gallate] : 14.2 µM
6) O=c1c(O)c(-c2ccccc2)oc2cc(O)cc(O)c12 [galangin] : 13.3 µM
7) Oc1cc(O)c2c(c1)O[C@H](c1ccc(O)c(O)c1)[C@H](O)C2 [Epicatechin, (−)-epicatechin] : 457 µM
8) O=c1c(O)c(-c2ccc(O)c(O)c2)oc2cc(O)cc(O)c12 [Quercetin, quercetin] : 8.93 µM
9) O=c1c(O)c(-c2ccc(O)cc2)oc2cc(O)cc(O)c12 [Kaempferol, kaempferol] : 11.9 µM
10) Oc1cc(O)c2c(c1)O[C@H](c1cc(O)c(O)c(O)c1)[C@H](O)C2 [EGC, (−)-epigallocatechin] : 74.2 µM
